- assayOverview: Human HepG2 cell viability assay in 384 well format
- Format: toxicity, cell-based
- Set-up: dose 125 nL, time 70.5 hour; concentration not given beside the values
- details: HepG2 cells, read-out: Inhibition
Task for the reader: assign each of the following compounds its reported cytotoxicity at 70.5 h.
One number for each entry, in %.

// worked examples, cytotoxicity at 70.5 h included
{"compound": "Cc1nc(C(=O)NCCS(=O)(=O)N2CCCC2)cs1", "measuredResult": 13.7}
{"compound": "CNc1nc(C2CCCN(C(=O)C(C)(C)OC)C2)nc2c1CN(C)CC2 (stereo unspecified)", "measuredResult": -13.7}
{"compound": "CN(C)C(=O)c1ccc(OC2CCOCC2)cc1", "measuredResult": -15.1}

Required: cytotoxicity at 70.5 h, one value per compound below.
1. Cc1cc(C)n(CC2CN(CC(=O)NC3CCCC3)CCO2)n1 (stereo unspecified)
2. CC(=O)N1CCC(N[C@@H]2CO[C@H](CNC(=O)C3CCCC3)[C@H]2O)CC1
3. COc1ccc(Cl)cc1CS(=O)(=O)Cc1nc(C)no1
4. COc1cc(CNC(c2ccccc2)c2nccn2C)cc(OC)c1 (stereo unspecified)
5. Cn1cc([C@@H]2CN(S(C)(=O)=O)C[C@H]2N)c2ccncc21
6. CCc1nnc(CN(C)c2nc(C3CCCC3)nc3c2cnn3C)o1
7. Cc1ccc(-c2nc(CNS(=O)(=O)N(C)C)[nH]c2-c2ccccn2)cc1
8. CN(C)c1cc(C(=O)Nc2ccccc2C(=O)NC(C)(C)C)ccn1

1. 18.5
2. -5.38
3. 15.2
4. 0.143
5. 19
6. -6.42
7. -2.34
8. -2.3

* * *

Task for the reader: assign each of the following molecules its reported cytotoxicity at 70.5 h.
- assayOverview: Human HepG2 cell viability assay in 384 well format
- Type: toxicity, cell-based
- Set-up: dose 125 nL, time 70.5 hour; concentration not given beside the values
- details: HepG2 cells, read-out: Inhibition
Numbers only, in %.

{"molecule": "O=S(=O)(c1ccccc1)N1CCN(CCn2ccnc2)CC1", "cytotoxicity at 70.5 h (%)": 1.34}
{"molecule": "CC(C)CN1CCN(C(=O)CCn2cccn2)CC1", "cytotoxicity at 70.5 h (%)": -1.87}
{"molecule": "COC(=O)c1ccc(C(=O)NCc2ccco2)nc1", "cytotoxicity at 70.5 h (%)": -8.73}
{"molecule": "CC(C)S(=O)(=O)NCC1CCCN(C(=O)c2ccc(Cl)cc2)C1 (centres undefined)", "cytotoxicity at 70.5 h (%)": 6.86}
{"molecule": "O=C(C1CCCC1)N1CCC(C2CCN(Cc3ccc(Cl)cc3)C2)CC1 (centres undefined)", "cytotoxicity at 70.5 h (%)": -2.34}
{"molecule": "CN(C)CCNC(=O)c1ccc(OC2CCN(S(C)(=O)=O)CC2)c(Cl)c1", "cytotoxicity at 70.5 h (%)": -9.41}

Required: cytotoxicity at 70.5 h, one value per molecule below.
1. O=C(NCc1ccc(-n2cncn2)nc1)c1cc(Cl)c2c(c1)OCCO2
2. CCNc1nnc(SCC(=O)N2CCN(Cc3ccc(Cl)s3)CC2)s1
3. CN(Cc1nccs1)c1nccc(N2CCN[C@H]3CS(=O)(=O)C[C@H]32)n1
4. CNc1cc(C)nc(-c2cc(NCCO)nc3[nH]ccc23)n1
5. CSc1ccccc1NC(=O)c1ccc(N2CCOCC2)nn1
6. Cc1ccccc1N1CC2(CCN(S(=O)(=O)C3CC3)C2)CC1=O (centres undefined)
7. NCCc1nc(N(Cc2nccs2)C2CC2)c2ccccc2n1

1: -3.48; 2: -0.322; 3: 2.95; 4: 11.9; 5: -3.96; 6: -14.8; 7: 37.2

Required: cytotoxicity at 70.5 h, one value per molecule below.
1. COCCn1ccnc1CN(Cc1ccccn1)Cc1sccc1C
2. Cc1ccc(O[C@@H]2C[C@H]3CN(C(=O)c4cnccn4)CCN3C2)cc1
3. N#Cc1ccc(C(=O)O)nc1/C=C/c1cccc(F)c1

[-7.84, -4.43, -7.55]

Required: cytotoxicity at 70.5 h, one value per molecule below.
1. COc1c(CNC(C)C(=O)NC2CCCC2)c(C)nn1C (centres undefined)
2. O=C(NCc1ccc(Cl)cc1)C1=NOC2(CCNC2)C1 (centres undefined)

-6.91
-9.72

* * *

- assayOverview: Human HepG2 cell viability assay in 384 well format
- Assay type: toxicity, cell-based
- Parameters: dose 125 nL, time 70.5 hour; concentration not given beside the values
- details: HepG2 cells, read-out: Inhibition
experimentalReadout: cytotoxicity at 70.5 h (%)
Numbers only, in %.

{"compound": "CC(C)c1n[nH]c(C(=O)NC(C)c2ccncc2)c1Br (stereo not given)", "unitLabel": "%", "cytotoxicity at 70.5 h": -2.63}
{"compound": "Cc1cccc2c1OCCC2NCc1c(C(C)C)nn(C)c1N(C)C (stereo not given)", "unitLabel": "%", "cytotoxicity at 70.5 h": -10.6}

Required: cytotoxicity at 70.5 h, one value per compound below.
1. CS(=O)(=O)N1C[C@H]2CCCN(Cc3ccsc3)[C@H]2C1
2. CN(CC1CN(CCn2cc(C#N)cn2)CCO1)c1cccnn1 (stereo not given)
3. Cc1ccccc1C1(CN)CCOCC1

[13.4, -6.68, -6.58]

Required: cytotoxicity at 70.5 h, one value per compound below.
1. c1ccc(Cn2ccnc2CNCC2CCCN2c2cccnn2)cc1 (stereo not given)
2. Cc1ncnc2c1CCN(C(=O)c1ccncc1F)CC2
3. Cc1nc(CN2CCN(C(=O)CCc3ccco3)CC2)cs1
4. COCc1nc(C(=O)N2CCCC2c2cc(C)no2)cs1 (stereo not given)

[4.91, -8.13, -5.22, -7.8]

* * *

Task for the reader: assign each of the following molecules its reported cytotoxicity at 70.5 h.
- assayOverview: Human HepG2 cell viability assay in 384 well format
- Assay type: toxicity, cell-based
- Set-up: dose 125 nL, time 70.5 hour; concentration not given beside the values
- details: HepG2 cells, read-out: Inhibition
One number for each entry, in %.

// worked examples, cytotoxicity at 70.5 h included
{"molecule": "COc1cc(N(C)Cc2noc(CC(C)C)n2)ncn1", "unitLabel": "%", "measuredResult": 20.1}
{"molecule": "Cn1ccnc1CN1CCC2(CC1)CN(Cc1ccccc1)C(=O)CO2", "unitLabel": "%", "measuredResult": -5.92}
{"molecule": "CCN(c1ccsc1C(=O)N1CCSCC1)S(=O)(=O)c1ccc(Cl)cc1", "unitLabel": "%", "measuredResult": -3.47}
{"molecule": "CCc1c(C)sc2c1c(N)nc(=O)n2CCCN(C)C", "unitLabel": "%", "measuredResult": 5.31}
{"molecule": "Cc1ncsc1C(=O)NC1CCN(CC(=O)NCc2ccccc2)CC1", "unitLabel": "%", "measuredResult": 2.21}
{"molecule": "NC[C@H]1CC[C@H](C(NC(=O)c2ccccc2)c2ccccn2)CC1 (some centres not stated)", "unitLabel": "%", "measuredResult": 11.1}
{"molecule": "CCNc1ncc(C(=O)N(C)Cc2nc3ccccc3n2C)cn1", "unitLabel": "%", "measuredResult": -2.99}
{"molecule": "CC(C)N(CC(N)=O)Cc1csc(COc2ccc(F)cc2)n1", "unitLabel": "%", "measuredResult": 43.4}

Required: cytotoxicity at 70.5 h, one value per molecule below.
1. CCc1nccn1CC(=O)Nc1cccc(C(=O)N(C)C)c1
2. Cc1nc(Cc2ccccc2)nc2sc(C(=O)O)c(C)c12
3. CN(C)Cc1nc2c(o1)CN(C(=O)NCc1cccc(F)c1)C2
4. CC(C)Cc1cc(C(=O)NC(C)C)[nH]n1
5. Cc1nn(C)c(C)c1CN(C)C(=O)C1COc2ccccc2C1 (configuration not stated)
6. O=C(CSc1ccc(F)cc1)NS(=O)(=O)c1ccc2c(c1)OCCO2
7. Cc1ccc(CNC(=O)CNCC2CCN(CCO)CC2)s1

7.42
-5.63
-5.42
-4.46
-3.84
6.32
-1.79

* * *

- assayOverview: Human HepG2 cell viability assay in 384 well format
- Assay type: toxicity, cell-based
- Design: dose 125 nL, time 70.5 hour; concentration not given beside the values
- details: HepG2 cells, read-out: Inhibition
experimentalReadout: cytotoxicity at 70.5 h (%)
Numbers only, in %.

{"compound": "CC(c1cccc(-c2ccc(C(=O)O)cc2Cl)c1)N(C)C (centres undefined)", "cytotoxicity at 70.5 h (%)": -1.21}
{"compound": "O=c1cc(CN2CCCC2)nc2n1CCCN(CC1CCOCC1)C2", "cytotoxicity at 70.5 h (%)": -13.6}
{"compound": "Cn1cnnc1S(=O)(=O)C1CCN(S(=O)(=O)c2ccc(F)c(Cl)c2)CC1", "cytotoxicity at 70.5 h (%)": -5.73}
{"compound": "CN1CCN(CCCNC(=O)CCc2nc3cc(Br)cnc3[nH]2)CC1", "cytotoxicity at 70.5 h (%)": -31}
{"compound": "CNc1cc(C2CN(C(=O)c3cnn(C)c3)CCO2)nc(C)n1 (centres undefined)", "cytotoxicity at 70.5 h (%)": 13.9}

Required: cytotoxicity at 70.5 h, one value per compound below.
1. O=C(COc1cccc2c1CCC2=O)NCCOc1ccccc1
2. O[C@@H]1C[C@@](CNCc2ccccn2)(COc2cccnc2)C[C@@H]1O

1. 15.4
2. -8.64

Required: cytotoxicity at 70.5 h, one value per compound below.
1. O=C(c1ccccn1)N1CCC(S(=O)(=O)c2ccccc2)C1 (centres undefined)
2. Cc1ncc2c(n1)CN(CCOCC(F)(F)F)CC2
3. Cn1cc(CN2CCCC(CCc3ccc(F)cc3F)C2)cn1 (centres undefined)
4. COc1ccnc(N2CCN(C(=O)Cc3ccn(C(C)C)n3)CC2)n1
5. COC(C)c1noc(CN(C)c2ncc(Br)cn2)n1 (centres undefined)

1: -9.33; 2: -4.14; 3: -3.89; 4: -5.11; 5: -3.46

Required: cytotoxicity at 70.5 h, one value per compound below.
1. CN(Cc1nnc(C2CC2)n1C)C1CCN(CCc2cnn(C)c2)C1 (centres undefined)
2. Cc1cc(NC(=O)C2CN(Cc3ccccc3)CCO2)ccn1 (centres undefined)

1. 39.7
2. 13

Required: cytotoxicity at 70.5 h, one value per compound below.
1. O=C(O)C(c1ccc(O)cc1)N1CCC(N2CCSCC2)CC1 (centres undefined)
2. O=C(c1ccncc1F)N1CCCC1c1nc(-c2ccccc2)n[nH]1 (centres undefined)
3. CN(C)Cc1ccc(C2CCCCN2C(=O)c2cccc(CO)n2)cc1 (centres undefined)
4. COCCOc1ccc(NC(=O)N(CC2CCOC2)C2CC2)cn1 (centres undefined)
5. CCCC1CCCN(C(=O)CNC(=O)c2ccoc2C)CC1 (centres undefined)
6. Cc1cc(-c2noc(C3CCS(=O)(=O)C3)n2)ccc1F (centres undefined)
7. Cn1ccnc1Sc1ccc(S(N)(=O)=O)cn1

1. -0.773
2. -3.44
3. 23.6
4. -2.98
5. -18.9
6. -11
7. -5.03

Required: cytotoxicity at 70.5 h, one value per compound below.
1. CCc1noc(C)c1C(=O)NCc1c(C)nn(CCOC)c1C
2. Cc1nc2ccccc2c(=O)n1CCC(=O)N1CCCCCC1

1: -4.73; 2: 1.78

Quick one: cytotoxicity at 70.5 h for `CN1CCN(c2ccnc3c(F)cc(Br)cc23)CC1` ?
1.8
